# TARGET OR TEST SYSTEM: Human CaV2.2 channels (Homo sapiens)
# Construct: expressed in transfected cells; host or cells: HEK293
# METHOD: Fluorescent (FLIPR) assay for CaV2.2 channels using potassium depolarization to induce channel opening
# Assay type: cell-based
# TEST CONTEXT: 3 μM compound; 30 mM KCl assay buffer (inactivated channel state); HEK293 cells stably expressing human CaV2.2; read-out: Activity Category: %-Inhib (CaV2.2) @3 μM @30 mM KCl
Task for the reader: assign each of the following compounds its reported inhibition at 3 µM.

Use the examples below as a reference point.
Noted for Cc1c(-c2ncc(Cl)cn2)c(C(=O)N(C)Cc2ccnn2C)n(C(C)C)c1C(F)(F)F [Example 122] : its inhibition at 3 µM reads 40 to 75%

Lab book: inhibition at 3 µM of Cc1c(-c2ccc(Cl)cn2)c(C(=O)N2CCOC(C)(C)C2)n(C(C)C)c1C(F)(F)F [Example 112] noted as 40 to 75%

Entry under test: O=C(c1c(-c2ccc(Cl)cc2)cc(C(F)(F)F)n1C1CC1)N1CCOCC1 [Example 038] . Its inhibition at 3 µM was 40 to 75%

Here are 5 compounds. What values of inhibition at 3 µM were reported for them?
1. Cc1c(-c2ccc(Cl)cn2)c(C(=O)N2CC[S+]([O-])C(C)(C)C2)n(C(C)C)c1C(F)(F)F (centres unmarked) [Example 130]
2. CC(C)Cn1c(C(F)(F)F)cc(-c2ccc(F)cc2)c1C(=O)N(C)CCS(C)(=O)=O [Example 050]
3. Cc1c(-c2ccc(Cl)cc2)c(C(=O)N(C)CC(C)(C)CO)n(CC(C)C)c1C(F)(F)F [Example 055]
4. O=C(NC1CC1)c1c(-c2ccc(F)cc2)cc(C(F)(F)F)n1CC1CCCO1 (centres unmarked) [Example 082]
5. Cc1cc(CN(C)C(=O)c2c(-c3ccc(Cl)cc3F)c(C)c(C(F)(F)F)n2C2CC2)no1 [Example 020]

40 to 75%
75 to 95%
> 95%
40 to 75%
> 95%

----------
# TARGET OR TEST SYSTEM: Human CaV2.2 channels (Homo sapiens, UniProt Q00975)
# Construct: expressed in transfected cells; host or cells: HEK293
# Sequence (Q00975 whole entry): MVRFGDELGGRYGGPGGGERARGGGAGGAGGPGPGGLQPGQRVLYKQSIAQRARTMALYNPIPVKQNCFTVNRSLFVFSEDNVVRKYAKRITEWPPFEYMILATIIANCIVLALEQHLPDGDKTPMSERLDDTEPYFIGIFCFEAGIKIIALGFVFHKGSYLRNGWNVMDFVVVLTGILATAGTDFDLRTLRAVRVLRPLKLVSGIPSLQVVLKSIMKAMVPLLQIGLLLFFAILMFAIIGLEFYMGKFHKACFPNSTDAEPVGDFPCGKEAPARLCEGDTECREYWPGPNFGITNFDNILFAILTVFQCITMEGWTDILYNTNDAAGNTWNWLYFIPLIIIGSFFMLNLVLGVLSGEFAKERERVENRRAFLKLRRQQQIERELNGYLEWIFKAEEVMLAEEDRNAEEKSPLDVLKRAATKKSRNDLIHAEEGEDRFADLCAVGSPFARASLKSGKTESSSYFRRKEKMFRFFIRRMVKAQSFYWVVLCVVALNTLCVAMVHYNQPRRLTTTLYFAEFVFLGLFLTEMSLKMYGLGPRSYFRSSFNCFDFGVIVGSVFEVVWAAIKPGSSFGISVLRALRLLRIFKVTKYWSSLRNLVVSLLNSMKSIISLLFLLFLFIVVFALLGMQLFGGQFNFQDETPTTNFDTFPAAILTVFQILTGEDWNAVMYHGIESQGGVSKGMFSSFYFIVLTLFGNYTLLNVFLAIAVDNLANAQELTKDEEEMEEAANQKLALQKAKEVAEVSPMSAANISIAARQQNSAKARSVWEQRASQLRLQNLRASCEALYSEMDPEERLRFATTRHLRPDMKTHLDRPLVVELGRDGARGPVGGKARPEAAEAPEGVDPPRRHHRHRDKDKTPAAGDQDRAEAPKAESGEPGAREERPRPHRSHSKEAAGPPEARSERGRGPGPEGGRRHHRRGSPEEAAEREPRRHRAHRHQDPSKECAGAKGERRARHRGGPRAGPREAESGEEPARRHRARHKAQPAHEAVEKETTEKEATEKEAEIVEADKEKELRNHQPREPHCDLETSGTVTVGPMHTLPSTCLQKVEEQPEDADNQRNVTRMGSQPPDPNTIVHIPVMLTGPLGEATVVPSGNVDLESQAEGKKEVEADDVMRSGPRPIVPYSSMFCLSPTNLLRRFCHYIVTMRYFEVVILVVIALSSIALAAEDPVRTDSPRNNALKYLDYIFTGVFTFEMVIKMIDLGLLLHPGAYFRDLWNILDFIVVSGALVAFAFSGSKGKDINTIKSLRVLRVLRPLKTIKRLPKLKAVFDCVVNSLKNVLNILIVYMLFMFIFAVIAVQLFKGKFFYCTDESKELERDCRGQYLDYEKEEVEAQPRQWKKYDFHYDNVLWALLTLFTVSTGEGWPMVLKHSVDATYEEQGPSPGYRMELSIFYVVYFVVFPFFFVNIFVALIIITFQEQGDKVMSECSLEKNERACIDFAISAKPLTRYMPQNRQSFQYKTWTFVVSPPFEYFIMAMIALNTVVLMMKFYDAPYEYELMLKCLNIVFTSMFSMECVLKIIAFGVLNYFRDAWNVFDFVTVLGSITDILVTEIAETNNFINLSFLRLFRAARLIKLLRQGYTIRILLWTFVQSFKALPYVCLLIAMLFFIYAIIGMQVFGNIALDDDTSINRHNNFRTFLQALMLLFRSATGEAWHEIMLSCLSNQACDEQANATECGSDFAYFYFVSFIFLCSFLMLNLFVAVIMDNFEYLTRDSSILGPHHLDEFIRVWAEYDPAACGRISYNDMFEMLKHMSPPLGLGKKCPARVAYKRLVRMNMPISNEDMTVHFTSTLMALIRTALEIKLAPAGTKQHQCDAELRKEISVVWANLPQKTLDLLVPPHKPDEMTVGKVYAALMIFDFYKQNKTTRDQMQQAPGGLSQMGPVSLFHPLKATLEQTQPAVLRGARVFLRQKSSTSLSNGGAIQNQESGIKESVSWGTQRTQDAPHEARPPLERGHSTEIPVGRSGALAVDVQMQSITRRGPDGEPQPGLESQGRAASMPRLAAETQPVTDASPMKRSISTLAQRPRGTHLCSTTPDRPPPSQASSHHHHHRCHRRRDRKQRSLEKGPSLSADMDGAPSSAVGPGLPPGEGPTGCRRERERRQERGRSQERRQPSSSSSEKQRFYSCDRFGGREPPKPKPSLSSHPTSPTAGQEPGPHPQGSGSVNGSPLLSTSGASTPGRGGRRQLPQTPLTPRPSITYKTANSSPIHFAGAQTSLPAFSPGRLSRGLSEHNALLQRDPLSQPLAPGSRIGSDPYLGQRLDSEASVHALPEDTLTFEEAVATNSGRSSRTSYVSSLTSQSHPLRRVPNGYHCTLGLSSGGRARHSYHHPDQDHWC
# Sequence (P54284 whole entry, further chain): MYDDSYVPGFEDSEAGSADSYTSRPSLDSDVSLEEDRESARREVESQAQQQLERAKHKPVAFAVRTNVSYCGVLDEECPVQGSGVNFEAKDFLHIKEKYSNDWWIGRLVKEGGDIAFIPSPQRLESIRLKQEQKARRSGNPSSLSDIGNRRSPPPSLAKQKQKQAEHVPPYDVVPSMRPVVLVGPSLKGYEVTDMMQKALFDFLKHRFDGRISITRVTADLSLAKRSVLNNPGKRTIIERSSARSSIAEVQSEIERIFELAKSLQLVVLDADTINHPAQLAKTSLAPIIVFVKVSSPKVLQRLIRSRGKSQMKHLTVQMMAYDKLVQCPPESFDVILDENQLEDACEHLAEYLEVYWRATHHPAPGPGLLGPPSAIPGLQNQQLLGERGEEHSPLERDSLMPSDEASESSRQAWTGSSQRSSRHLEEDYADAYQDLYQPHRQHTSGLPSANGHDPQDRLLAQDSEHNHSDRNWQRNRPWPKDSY
# Sequence (P54289 25-1103, further chain): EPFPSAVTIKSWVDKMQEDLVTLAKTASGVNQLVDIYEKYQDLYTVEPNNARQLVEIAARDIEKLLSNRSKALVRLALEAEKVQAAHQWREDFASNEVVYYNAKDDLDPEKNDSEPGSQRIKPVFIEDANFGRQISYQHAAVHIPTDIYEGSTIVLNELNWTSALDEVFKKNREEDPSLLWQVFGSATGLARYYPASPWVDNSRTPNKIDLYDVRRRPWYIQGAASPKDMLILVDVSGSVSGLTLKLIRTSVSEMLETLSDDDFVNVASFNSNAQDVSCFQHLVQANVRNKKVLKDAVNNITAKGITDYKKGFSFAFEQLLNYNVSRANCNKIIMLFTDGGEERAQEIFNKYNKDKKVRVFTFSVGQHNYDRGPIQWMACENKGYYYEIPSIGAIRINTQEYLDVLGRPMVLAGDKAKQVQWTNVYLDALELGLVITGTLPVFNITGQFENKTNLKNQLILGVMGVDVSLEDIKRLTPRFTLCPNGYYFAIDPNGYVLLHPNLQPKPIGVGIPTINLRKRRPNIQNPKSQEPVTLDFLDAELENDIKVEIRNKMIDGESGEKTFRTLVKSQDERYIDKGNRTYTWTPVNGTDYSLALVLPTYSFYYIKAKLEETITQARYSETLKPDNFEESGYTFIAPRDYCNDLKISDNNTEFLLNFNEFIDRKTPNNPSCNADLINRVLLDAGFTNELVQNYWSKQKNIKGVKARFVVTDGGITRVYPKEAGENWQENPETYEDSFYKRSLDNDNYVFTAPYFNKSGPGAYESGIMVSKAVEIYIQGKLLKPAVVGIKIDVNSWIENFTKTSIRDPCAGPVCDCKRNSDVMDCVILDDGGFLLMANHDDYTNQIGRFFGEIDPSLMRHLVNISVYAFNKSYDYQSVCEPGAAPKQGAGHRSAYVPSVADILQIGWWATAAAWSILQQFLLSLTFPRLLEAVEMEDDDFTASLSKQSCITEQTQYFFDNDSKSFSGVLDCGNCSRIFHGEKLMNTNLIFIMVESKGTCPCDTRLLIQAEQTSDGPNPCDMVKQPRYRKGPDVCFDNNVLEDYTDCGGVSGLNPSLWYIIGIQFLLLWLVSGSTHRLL
# METHOD: Fluorescent (FLIPR) assay for CaV2.2 channels using potassium depolarization to induce channel opening
# Format: cell-based
# TEST CONTEXT: 3 μM compound; 30 mM KCl assay buffer (inactivated channel state); HEK293 cells stably expressing human CaV2.2; read-out: Activity Category: %-Inhib (CaV2.2) @3 μM @30 mM KCl
Record form. Attribute: inhibition at 3 µM. Fill in for each entry.

Worked examples, 3 molecules total:
Value of inhibition at 3 µM reported for the molecule Cc1c(-c2ccc(Cl)cc2)c(C(=O)N(C)C(C)C(=O)NC(C)(C)C)n(C(C)C)c1C(F)(F)F (stereo not shown) is 40 to 75%

Record summary for Cc1c(-c2ccc(Cl)cc2)c(C(=O)N(C)CC2CCOC2)n(C2CC2)c1C(F)(F)F (stereo not shown) : reported inhibition at 3 µM = > 95%

Recorded result, Cc1c(-c2ccc(Cl)cc2)c(C(=O)N(C)C(C)C)n(C(C)C)c1C(F)(F)F , inhibition at 3 µM: > 95%

New cases:
// CN(CC(C)(C)CN1CCOCC1)C(=O)c1c(-c2ccc(Cl)cc2)cc(C(F)(F)F)n1C1CC1 : inhibition at 3 µM value = 75 to 95%

----------
# TARGET OR TEST SYSTEM: Human CaV2.2 channels (Homo sapiens, UniProt Q00975)
# Construct: expressed in transfected cells; host or cells: HEK293
# METHOD: Fluorescent (FLIPR) assay for CaV2.2 channels using potassium depolarization to induce channel opening
# Assay type: cell-based
# TEST CONTEXT: 3 μM compound; 30 mM KCl assay buffer (inactivated channel state); HEK293 cells stably expressing human CaV2.2; read-out: Activity Category: %-Inhib (CaV2.2) @3 μM @30 mM KCl
PROPERTY NAME: inhibition at 3 µM

Reported inhibition at 3 µM for Cc1c(-c2ccc(Cl)cc2F)c(C(=O)N(C)Cc2ccncn2)n(C2CC2)c1C(F)(F)F was > 95%

Hi, could you look up inhibition at 3 µM for each item in my list?
1. CN(CC1CCOC1)C(=O)c1c(-c2ccc(Cl)cc2)cc(C(F)(F)F)n1C1CC1 (stereo not shown)
2. Cc1cnc(CN(C)C(=O)c2c(-c3ccc(F)cc3)cc(C(F)(F)F)n2CC(C)C)cn1
3. CN(CC(C)(C)C)C(=O)c1c(-c2ccc(Cl)cc2)cc(C(F)(F)F)n1CC1(O)CCCC1
4. Cc1c(-c2ccc(Cl)cc2)c(C(=O)N(C)CCS(C)(=O)=O)n(CC2(C)CC2)c1C(F)(F)F

1. 75 to 95%
2. > 95%
3. 75 to 95%
4. > 95%

----------
Kindly state inhibition at 3 µM for each of the entries shown.
# TARGET OR TEST SYSTEM: Human CaV2.2 channels (Homo sapiens)
# Construct: expressed in transfected cells; host or cells: HEK293
# METHOD: Fluorescent (FLIPR) assay for CaV2.2 channels using potassium depolarization to induce channel opening
# Format: cell-based
# TEST CONTEXT: 3 μM compound; 30 mM KCl assay buffer (inactivated channel state); HEK293 cells stably expressing human CaV2.2; read-out: Activity Category: %-Inhib (CaV2.2) @3 μM @30 mM KCl
# Description: In the process, the Ca^2+ influx is quantified in the FLIPR assay with the aid of a Ca^2+-sensitive dye (type Fluo-4, Molecular Probes Europe BV, Leiden, the Netherlands) in a fluorescent imaging plate reader (FLIPR 3, Molecular Devices, Sunnyvale, USA), as described hereinafter. Human CaV2.2 channels were stably expressed in HEK293 cells together with alpha2-delta and beta subunits of voltage gated calcium channels. […]

Solved cases (6 shown):
inhibition at 3 µM measured on Cc1c(-c2ccc(Cl)cn2)c(C(=O)N(C)C2CCNCC2(C)C)n(C(C)C)c1C(F)(F)F (stereo not shown) = 40 to 75%

Per the record, Cc1c(-c2ccc(Cl)cc2)c(C(=O)N2CC(O)C2)n(C2CC2)c1C(F)(F)F has inhibition at 3 µM of 75 to 95%

Sure, the documented inhibition at 3 µM for COc1ccc(CN(C)C(=O)c2c(-c3ccc(Cl)cc3)c(C)c(C(F)(F)F)n2C2CC2)cc1 is 75 to 95%

Notebook: Cc1c(-c2ccc(Cl)cc2)c(C(=O)N(C)CC(C)(C)CO)n(C2CC2)c1C(F)(F)F , inhibition at 3 µM read as 75 to 95%

Recorded inhibition at 3 µM (compound Cc1c(-c2ccc(Cl)cc2)c(C(=O)N(C)CC(C)(C)C#N)n(C(C)C)c1C(F)(F)F ): 75 to 95%

Summary for this compound, CN(CC(C)(C)C)C(=O)c1c(-c2ccc(Cl)cc2)cc(C(F)(F)F)n1CC1(N)CC1 : inhibition at 3 µM is 75 to 95%

// each listed compound needs a value for inhibition at 3 µM
1. Cc1c(-c2ccc(Cl)cc2)c(C(=O)N(C)CCS(C)(=O)=O)n(CC2(N)CC2)c1C(F)(F)F
2. CC(C)Cn1c(C(F)(F)F)cc(-c2ccc(F)cc2)c1C(=O)N1CCNC(=O)C1
3. Cc1cc(CN(C)C(=O)c2c(-c3ccc(Cl)cc3)c(C)c(C(F)(F)F)n2CC(C)C)no1
4. Cc1c(-c2ccc(Cl)cc2)c(C(=O)N2CCOC(C)(C)C2)n(C)c1C(F)(F)F
5. Cc1c(-c2ccc(Cl)cc2)c(C(=O)N2CCOCC2)n(CCS(C)(=O)=O)c1C(F)(F)F
6. Cc1cc(CN(C)C(=O)c2c(-c3ncc(Cl)cn3)c(C)c(C(F)(F)F)n2C(C)C)no1
7. Cc1c(-c2ccc(Cl)cc2)c(C(=O)N(C)C2(C(N)=O)CC2)n(C2CC2)c1C(F)(F)F
8. Cc1c(-c2ccc(Cl)cc2)c(C(=O)N(C)CC(C)(C)C(N)=O)n(C2CC2)c1C(F)(F)F

75 to 95%
40 to 75%
> 95%
75 to 95%
40 to 75%
75 to 95%
40 to 75%
75 to 95%

----------
# TARGET OR TEST SYSTEM: Human CaV2.2 channels (Homo sapiens, UniProt Q00975)
# Construct: expressed in transfected cells; host or cells: HEK293
# METHOD: Fluorescent (FLIPR) assay for CaV2.2 channels using potassium depolarization to induce channel opening
# Type: cell-based
# TEST CONTEXT: 3 μM compound; 30 mM KCl assay buffer (inactivated channel state); HEK293 cells stably expressing human CaV2.2; read-out: Activity Category: %-Inhib (CaV2.2) @3 μM @30 mM KCl
Exercise: for every item that follows, state its recorded inhibition at 3 µM.

Query Cc1c(-c2ccc(Cl)cc2)c(C(=O)N(C)CCS(C)(=O)=O)n(CC2(O)CCCC2)c1C(F)(F)F [Example 094] yields inhibition at 3 µM of > 95%

Look up inhibition at 3 µM for the entries below, preserving their order.
1. Cc1c(-c2ccc(Cl)cc2)c(C(=O)N2CCOCC2)n(CCN2CC(F)(F)C2)c1C(F)(F)F [Example 098]
2. COc1ccc(CN(C)C(=O)c2c(-c3ccc(Cl)cc3)cc(C(F)(F)F)n2C2CC2)cc1 [Example 011]
3. Cc1c(-c2ccc(Cl)cc2)c(C(=O)N(C)C2CCNCC2(C)C)n(C(C)C)c1C(F)(F)F (stereo not shown) [Example 135]
4. CC(C)Cn1c(C(F)(F)F)cc(-c2ccc(F)cc2)c1C(=O)N(C)CC(C)(C)CN1CCOCC1 [Example 054]

> 95%
75 to 95%
40 to 75%
75 to 95%
